assay: Cytometric Cell-Based qHTS for Inhibitors of the mTORC1 Signaling Pathway in MEF (Tsc2-/-, p53-/-) Cells (AID 2660); conditions: mTORC1 pathway cytometry; series mostly up to 38.3 µM;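 note: Tsc2 and p53 null MEFs carrying empty vector with compound for 24 h; percent of cells above a phospho-rpS6 to PI ratio cutoff in each well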
Results filed as inconclusive are left out. Calls of active or inactive are those of the source. Calls come from the whole dose curve; as a rule, active = well fitted curve in the direction sought with a large enough effect; inconclusive = small, poorly fitted or top-dose-only effect, or another doubt; inactive = no such curve, though single readings can be large or run the other way.
property measured: outcome

sample smiles	property measured	recorded measurement
CC[C@@]1(O)C(=O)OCc2c1cc1n(c2=O)Cc2cc3ccccc3nc2-1	outcome	inactive
C[C@@H](N)Cc1cnc[nH]1	outcome	inactive
CCCCc1ccc(C(=O)O)nc1	outcome	inactive

* * *

Reported Potency by item:
experiment: Quantitative High-Throughput drug screen in 47 multiple myeloma cell lines against the NCATS MIPE library collection: SKMM1_PLB cell viability assay (AID 1919863); details: SKMM1 myeloma viability, CellTiter-Glo ATP, 48 h; note: potency is the fitted concentration of half-maximal effect; nearly all actives have a fitted effect of over 35% in size
Inconclusive results are not listed. Active and inactive are the calls of the source. Calls come from the whole dose curve; as a rule, active = well fitted cell-killing curve with a large enough effect; inconclusive = small, poorly fitted or top-dose-only effect, or effect the other way; inactive = no such curve, though single readings can be large or run the other way.

Example entries and their recorded answers appear below.
compound	property measured	recorded measurement
Cc1[nH]nc2ccc(-c3cncc(OC[C@@H](N)Cc4c[nH]c5ccccc45)c3)cc12	Potency	5.9 µM (active)
COc1cc([C@@H]2c3cc4c(cc3[C@@H](O)C3COC(=O)C32)OCO4)cc(OC)c1O (stereo partly drawn)	Potency	0.0166 µM (active)
C[C@@H]1CC[C@@]2(OC1)O[C@H]1C[C@H]3[C@@H]4CC=C5C[C@@H](O[C@@H]6O[C@H](CO)[C@@H](O[C@@H]7O[C@@H](C)[C@H](O)[C@@H](O)[C@@H]7O)[C@H](O)[C@@H]6O[C@@H]6O[C@@H](C)[C@H](O)[C@@H](O)[C@@H]6O)CC[C@]5(C)[C@@H]4CC[C@]3(C)[C@@H]1[C@H]2C	Potency	2.35 µM (active)

Endpoint output: Potency of `Cc1ccccc1-n1c(Cn2cnc3c(N)ncnc32)nc2cccc(C)c2c1=O` . Value?
0.526 µM (active)

Endpoint output: Potency of `CCNC(=O)C[C@@H]1N=C(c2ccc(Cl)cc2)c2cc(OC)ccc2-n2c(C)nnc21` . Value?
0.469 µM (active)

Endpoint output: Potency of CO[C@H]1CCC(O[C@H]2C[C@H]([C@]3(C)CC[C@]4(C[C@H](O)[C@@H](C)[C@@H]([C@@H](C)C=C(C)C(=O)[C@H](C)C[C@H](C)C(=O)O)O4)O3)O[C@]3(O[C@@H]([C@H]4O[C@@](O)(CO)[C@H](C)C[C@H]4C)C[C@H]3C)[C@H]2C)O[C@H]1C (stereo partly drawn) . Value?
1.18 µM (active)

Endpoint output: Potency of `COc1ccc(C(=O)c2c(C)n(CCN3CCOCC3)c3cc(I)ccc23)cc1` . Value?
16.6 µM (active)

Endpoint output: Potency of `CC(O)=C(C#N)C(=O)Nc1cc(Br)ccc1Br` . Value?
20.9 µM (active)

Endpoint output: Potency of `O=c1[nH]c2ccc(Cl)cc2c(N[C@@H]2CN3CCC2CC3)c1-c1nc2ccccc2[nH]1` . Value?
4.69 µM (active)

Endpoint output: Potency of `N#C[C@H](O[C@@H]1O[C@H](CO[C@@H]2O[C@H](CO)[C@H](O)[C@H](O)[C@H]2O)[C@H](O)[C@H](O)[C@H]1O)c1ccccc1` . Value?
20.9 µM (active)

Endpoint output: Potency of `CC=C(C)C(=O)O[C@H]1C(C)=C2[C@@H]3OC(=O)[C@@](C)(O)[C@@]3(O)[C@@H](OC(=O)CCC)C[C@](C)(OC(C)=O)[C@@H]2[C@@H]1OC(=O)CCCCCCC` . Value?
0.105 µM (active)

Endpoint output: Potency of `CC[C@H]1C=CC=CC[C@@H](C)[C@H](O)[C@@](C)(O)C(=O)[C@@H](C)[C@H](O)[C@@H](C)C(=O)[C@@H](C)[C@H](O)[C@@H](C)C=CC(=O)O[C@@H]2[C@@H](C)[C@H](CC1)O[C@]1(CC[C@H](C)[C@H](C[C@@H](C)O)O1)[C@H]2C` . Value?
20.9 µM (active)

Endpoint output: Potency of `CCN1CCN(C(=O)Cc2ccc(Nc3ncc(F)c(Nc4ccc(C(=O)Nc5ccccc5Cl)cc4)n3)cc2)CC1` . Value?
9.35 µM (active)
